TARGET_OR_SYSTEM: GlunN1/GluN2A glutamate receptors (Homo sapiens (Human), UniProt Q05586+Q12879)
Sequence (Q12879 23-1464, other chains not shown): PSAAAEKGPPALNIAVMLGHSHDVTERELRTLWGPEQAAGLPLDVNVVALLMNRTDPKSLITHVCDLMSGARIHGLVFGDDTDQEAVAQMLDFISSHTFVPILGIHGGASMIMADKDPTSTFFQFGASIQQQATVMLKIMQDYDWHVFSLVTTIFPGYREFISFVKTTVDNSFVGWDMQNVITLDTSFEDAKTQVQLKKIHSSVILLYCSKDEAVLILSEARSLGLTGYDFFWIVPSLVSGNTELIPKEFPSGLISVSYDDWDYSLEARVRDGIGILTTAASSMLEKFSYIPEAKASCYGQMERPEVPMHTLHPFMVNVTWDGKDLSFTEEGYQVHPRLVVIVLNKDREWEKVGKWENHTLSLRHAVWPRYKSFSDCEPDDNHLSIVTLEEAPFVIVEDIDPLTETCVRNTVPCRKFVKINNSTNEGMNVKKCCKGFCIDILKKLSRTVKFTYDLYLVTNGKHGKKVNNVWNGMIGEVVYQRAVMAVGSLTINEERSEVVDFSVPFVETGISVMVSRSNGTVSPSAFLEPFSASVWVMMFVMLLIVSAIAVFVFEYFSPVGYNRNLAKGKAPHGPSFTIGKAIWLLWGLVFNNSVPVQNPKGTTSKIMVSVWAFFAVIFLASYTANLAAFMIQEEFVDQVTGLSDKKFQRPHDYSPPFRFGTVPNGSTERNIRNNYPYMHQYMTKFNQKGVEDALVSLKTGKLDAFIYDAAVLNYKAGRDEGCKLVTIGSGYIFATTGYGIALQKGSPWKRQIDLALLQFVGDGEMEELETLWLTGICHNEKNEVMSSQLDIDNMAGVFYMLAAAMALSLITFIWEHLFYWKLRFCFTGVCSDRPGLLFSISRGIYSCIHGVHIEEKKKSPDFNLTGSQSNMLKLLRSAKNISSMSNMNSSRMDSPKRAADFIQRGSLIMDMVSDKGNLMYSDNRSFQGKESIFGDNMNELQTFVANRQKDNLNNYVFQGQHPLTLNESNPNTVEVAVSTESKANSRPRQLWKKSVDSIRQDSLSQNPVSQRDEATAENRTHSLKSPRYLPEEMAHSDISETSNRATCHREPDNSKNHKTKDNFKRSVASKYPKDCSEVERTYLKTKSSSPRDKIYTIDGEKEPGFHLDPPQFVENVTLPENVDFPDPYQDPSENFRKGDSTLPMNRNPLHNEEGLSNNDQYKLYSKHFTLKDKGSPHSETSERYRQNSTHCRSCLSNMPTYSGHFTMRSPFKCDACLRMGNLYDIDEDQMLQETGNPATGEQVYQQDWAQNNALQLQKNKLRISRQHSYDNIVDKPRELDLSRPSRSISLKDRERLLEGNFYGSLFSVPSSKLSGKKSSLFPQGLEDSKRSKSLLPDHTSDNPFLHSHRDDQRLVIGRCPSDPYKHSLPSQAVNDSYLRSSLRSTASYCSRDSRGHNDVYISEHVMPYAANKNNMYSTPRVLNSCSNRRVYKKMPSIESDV
PROTOCOL: Whole-cell patch clamp of mammalian cells (Ionworks Barracuda), positive allosteric modulation, GluN1/GluN2A
Format: cell-based
Measured EC50 of individual entries
Just the number in nM, nothing appended.

                                smiles_repr  units_of_measure  experimental_result
0  C[C@H](CC[C@@H](O)C(F)(F)F)[C@H]1CC[C@H]2[C@@H]3CC[C@H]4C[C@](O)(C(F)(F)F)CC[C@]4(C)[C@H]3CC[C@]12C                nM                  182
1  C[C@H](CC[C@H](O)C(C)(C)C)[C@H]1CC[C@H]2[C@@H]3CC[C@H]4C[C@](O)(C(F)(F)F)CC[C@]4(C)[C@H]3CC[C@]12C                nM                 65.8
2  CC[C@]1(O)CC[C@@]2(C)C(=CC[C@H]3[C@@H]4CC[C@H]([C@H](C)CC[C@H](O)c5ccccc5)[C@@]4(C)CC[C@@H]32)C1                nM                  617

Shifting focus to the compound that follows.
Look up EC50 for this compound: C[C@H](O)CC[C@@H](C)[C@H]1CC[C@H]2[C@@H]3CC=C4C[C@](O)(C(F)(F)F)CC[C@]4(C)[C@H]3CC[C@]12C
289
